ASSAY_NOTES: Fluocinolone acetonide concentration in dog synovial fluid after intraarticular implants in knee joints
Type: in vivo, Canis familiaris
SETUP_CONDITIONS: dog, synovial fluid (left knee joint), other: bilateral intraarticular implants (knee joints), 18 mg, Left leg (18 mg implants), Dog 3001, Day 3; read-out: Assayed Concentrations of Fluocinolone Acetonide in Dog Synovial Fluid Samples (Left Leg)
Experimental: Devices were administered once via bilateral intraarticular implants. The day of surgical implantation was Day 1. The devices were made as follows. Fluocinolone acetonide, USP, was compressed into 1.5 mm diameter tablets using standard pharmaceutical methods. The tablets were placed into preformed cups made from silicone elastomer. Cup size was dependent on dosage form. These cups were attached to polyvinyl acetate (PVA) suture tabs. […]

{"COMPOUND": "CC1(C)O[C@@H]2C[C@H]3[C@@H]4C[C@H](F)C5=CC(=O)C=C[C@]5(C)[C@@]4(F)[C@@H](O)C[C@]3(C)[C@]2(C(=O)CO)O1 [Fluocinolone Acetonide]", "concentration at 3 day": "788 ng/mL"}

###

ASSAY_NOTES: Fluocinolone acetonide concentration in dog synovial fluid after intraarticular implants in knee joints
Format: in vivo, Canis familiaris
SETUP_CONDITIONS: dog, synovial fluid (left knee joint), other: bilateral intraarticular implants (knee joints), 18 mg, Left leg (18 mg implants), Dog 1002, Day 7; read-out: Assayed Concentrations of Fluocinolone Acetonide in Dog Synovial Fluid Samples (Left Leg)

{"COMPOUND": "CC1(C)O[C@@H]2C[C@H]3[C@@H]4C[C@H](F)C5=CC(=O)C=C[C@]5(C)[C@@]4(F)[C@@H](O)C[C@]3(C)[C@]2(C(=O)CO)O1 [Fluocinolone Acetonide]", "concentration at 7 day": "405 ng/mL"}

###

ASSAY_NOTES: Fluocinolone acetonide concentration in dog synovial fluid after intraarticular implants in knee joints
Assay type: in vivo, Canis familiaris
SETUP_CONDITIONS: dog, synovial fluid (left knee joint), other: bilateral intraarticular implants (knee joints), 18 mg, Left leg (18 mg implants), Dog 2002, Day 21; read-out: Assayed Concentrations of Fluocinolone Acetonide in Dog Synovial Fluid Samples (Left Leg)
Experimental: Devices were administered once via bilateral intraarticular implants. The day of surgical implantation was Day 1. The devices were made as follows. Fluocinolone acetonide, USP, was compressed into 1.5 mm diameter tablets using standard pharmaceutical methods. The tablets were placed into preformed cups made from silicone elastomer. Cup size was dependent on dosage form. These cups were attached to polyvinyl acetate (PVA) suture tabs. […]

{"COMPOUND": "CC1(C)O[C@@H]2C[C@H]3[C@@H]4C[C@H](F)C5=CC(=O)C=C[C@]5(C)[C@@]4(F)[C@@H](O)C[C@]3(C)[C@]2(C(=O)CO)O1 [Fluocinolone Acetonide]", "UNIT_OF_MEASURE": "ng/mL", "concentration at 21 day": 393}

###

ASSAY_NOTES: Fluocinolone acetonide concentration in dog synovial fluid after intraarticular implants in knee joints
Type: in vivo, Canis familiaris
SETUP_CONDITIONS: dog, synovial fluid (left knee joint), other: bilateral intraarticular implants (knee joints), 18 mg, Left leg (18 mg implants), Dog 1001, Day 56; read-out: Assayed Concentrations of Fluocinolone Acetonide in Dog Synovial Fluid Samples (Left Leg)
Procedure: Devices were administered once via bilateral intraarticular implants. The day of surgical implantation was Day 1. The devices were made as follows. Fluocinolone acetonide, USP, was compressed into 1.5 mm diameter tablets using standard pharmaceutical methods. The tablets were placed into preformed cups made from silicone elastomer. Cup size was dependent on dosage form. These cups were attached to polyvinyl acetate (PVA) suture tabs. […]
PARAMETER: concentration at 56 day (µg/mL)

{"MOLECULE": "CC1(C)O[C@@H]2C[C@H]3[C@@H]4C[C@H](F)C5=CC(=O)C=C[C@]5(C)[C@@]4(F)[C@@H](O)C[C@]3(C)[C@]2(C(=O)CO)O1 [Fluocinolone Acetonide]", "VALUE_OBSERVED": 202}

###

ASSAY_NOTES: Fluocinolone acetonide concentration in dog synovial fluid after intraarticular implants in knee joints
Assay type: in vivo, Canis familiaris
SETUP_CONDITIONS: dog, synovial fluid (left knee joint), other: bilateral intraarticular implants (knee joints), 18 mg, Left leg (18 mg implants), Dog 3002, Day 29; read-out: Assayed Concentrations of Fluocinolone Acetonide in Dog Synovial Fluid Samples (Left Leg)

{"MOLECULE": "CC1(C)O[C@@H]2C[C@H]3[C@@H]4C[C@H](F)C5=CC(=O)C=C[C@]5(C)[C@@]4(F)[C@@H](O)C[C@]3(C)[C@]2(C(=O)CO)O1 [Fluocinolone Acetonide]", "concentration at 29 day, ng/mL": 210}

###

ASSAY_NOTES: Fluocinolone acetonide concentration in dog synovial fluid after intraarticular implants in knee joints
Format: in vivo, Canis familiaris
SETUP_CONDITIONS: dog, synovial fluid (right knee joint), other: bilateral intraarticular implants (knee joints), 2 mg, Right leg (2 mg devices), Dog 2001, Day 3; read-out: Assayed Concentrations of Fluocinolone Acetonide in Dog Synovial Fluid Samples (Right Leg)
PARAMETER: concentration at 3 day (ng/mL)

{"COMPOUND": "CC1(C)O[C@@H]2C[C@H]3[C@@H]4C[C@H](F)C5=CC(=O)C=C[C@]5(C)[C@@]4(F)[C@@H](O)C[C@]3(C)[C@]2(C(=O)CO)O1 [Fluocinolone Acetonide]", "VALUE_OBSERVED": 600}

###

ASSAY_NOTES: Fluocinolone acetonide concentration in dog synovial fluid after intraarticular implants in knee joints
Type: in vivo, Canis familiaris
SETUP_CONDITIONS: dog, synovial fluid (left knee joint), other: bilateral intraarticular implants (knee joints), 18 mg, Left leg (18 mg implants), Dog 1002, Day 56; read-out: Assayed Concentrations of Fluocinolone Acetonide in Dog Synovial Fluid Samples (Left Leg)
PARAMETER: concentration at 56 day (ng/mL)

{"MOLECULE": "CC1(C)O[C@@H]2C[C@H]3[C@@H]4C[C@H](F)C5=CC(=O)C=C[C@]5(C)[C@@]4(F)[C@@H](O)C[C@]3(C)[C@]2(C(=O)CO)O1 [Fluocinolone Acetonide]", "PARAMETER": "concentration at 56 day", "VALUE_OBSERVED": 541}

###

ASSAY_NOTES: Fluocinolone acetonide concentration in dog synovial fluid after intraarticular implants in knee joints
Type: in vivo, Canis familiaris
SETUP_CONDITIONS: dog, synovial fluid (right knee joint), other: bilateral intraarticular implants (knee joints), 2 mg, Right leg (2 mg devices), Dog 1001, Day 7; read-out: Assayed Concentrations of Fluocinolone Acetonide in Dog Synovial Fluid Samples (Right Leg)

{"COMPOUND": "CC1(C)O[C@@H]2C[C@H]3[C@@H]4C[C@H](F)C5=CC(=O)C=C[C@]5(C)[C@@]4(F)[C@@H](O)C[C@]3(C)[C@]2(C(=O)CO)O1 [Fluocinolone Acetonide]", "UNIT_OF_MEASURE": "ng/mL", "concentration at 7 day": 62.4}

###

ASSAY_NOTES: Fluocinolone acetonide concentration in dog synovial fluid after intraarticular implants in knee joints
Assay type: in vivo, Canis familiaris
SETUP_CONDITIONS: dog, synovial fluid (left knee joint), other: bilateral intraarticular implants (knee joints), 18 mg, Left leg (18 mg implants), Dog 2001, Day 29; read-out: Assayed Concentrations of Fluocinolone Acetonide in Dog Synovial Fluid Samples (Left Leg)
PARAMETER: concentration at 29 day (µg/mL)

{"MOLECULE": "CC1(C)O[C@@H]2C[C@H]3[C@@H]4C[C@H](F)C5=CC(=O)C=C[C@]5(C)[C@@]4(F)[C@@H](O)C[C@]3(C)[C@]2(C(=O)CO)O1 [Fluocinolone Acetonide]", "PARAMETER": "concentration at 29 day", "VALUE_OBSERVED": 0.0578}

###

ASSAY_NOTES: Fluocinolone acetonide concentration in dog synovial fluid after intraarticular implants in knee joints
Type: in vivo, Canis familiaris
SETUP_CONDITIONS: dog, synovial fluid (left knee joint), other: bilateral intraarticular implants (knee joints), 18 mg, Left leg (18 mg implants), Dog 1001, Day 7; read-out: Assayed Concentrations of Fluocinolone Acetonide in Dog Synovial Fluid Samples (Left Leg)

{"MOLECULE": "CC1(C)O[C@@H]2C[C@H]3[C@@H]4C[C@H](F)C5=CC(=O)C=C[C@]5(C)[C@@]4(F)[C@@H](O)C[C@]3(C)[C@]2(C(=O)CO)O1 [Fluocinolone Acetonide]", "UNIT_OF_MEASURE": "ng/mL", "concentration at 7 day": 290}

###

ASSAY_NOTES: Fluocinolone acetonide concentration in dog synovial fluid after intraarticular implants in knee joints
Assay type: in vivo, Canis familiaris
SETUP_CONDITIONS: dog, synovial fluid (right knee joint), other: bilateral intraarticular implants (knee joints), 2 mg, Right leg (2 mg devices), Dog 1002, Day 3; read-out: Assayed Concentrations of Fluocinolone Acetonide in Dog Synovial Fluid Samples (Right Leg)

{"COMPOUND": "CC1(C)O[C@@H]2C[C@H]3[C@@H]4C[C@H](F)C5=CC(=O)C=C[C@]5(C)[C@@]4(F)[C@@H](O)C[C@]3(C)[C@]2(C(=O)CO)O1 [Fluocinolone Acetonide]", "concentration at 3 day": "36.6 ng/mL"}
